Value source: patent US20050048011A1

Test system: three dimensional model of human skin tissue (TESTSKIN LSD-d, Toyobo K. K.)
Assay: Permeability of three dimensional model of human skin tissue and tocopherol conversion
Details: 1% solution, 6 hours
Experimental: 40 μL of a 1% solution of the below test substances 1) to 7) dissolved or dispersed in Dulbecco's PBS (−) were applied onto the tissue surface of a three dimensional model of human skin tissue (TESTSKIN™ LSD-d, Toyobo K. K.) and were cultured at 37° C. under 5% CO2 for 6 hours. After this, the solutions of the test substances were removed by aspiration and sampling was carried out. […]
property label: level of tocopherol in model skin

Cc1c(C)c2c(c(C)c1OC(=O)CN(C)C)CCC(C)(CCCC(C)CCCC(C)CCCC(C)C)O2.Cl (stereo not shown); significantly increased
Cc1c(OC(=O)CN(C)C)cc2c(c1C)OC(C)(CCCC(C)CCCC(C)CCCC(C)C)CC2.Cl (stereo not shown); significantly increased
CNCC(=O)Oc1c(C)c(C)c2c(c1C)CCC(C)(CCCC(C)CCCC(C)CCCC(C)C)O2.Cl (stereo not shown); significantly increased
CNCC(=O)Oc1cc2c(c(C)c1C)OC(C)(CCCC(C)CCCC(C)CCCC(C)C)CC2.Cl (stereo not shown); significantly increased
